Assay: Volume of distribution at steady state in Han Wistar rat at 5 mg/kg, iv
Format: ADME, organism-based
Conditions: in vivo, read-out: Vdss
metric: Vd (L/kg)

>>> df
                           smiles_structure  unit_symbol  quantitative_readout
0  COc1nn(C)cc1Nc1nccc(-c2c[nH]c3c(NC(=O)[C@@H](C)N4CCN(C)CC4)cccc23)n1         L/kg                   8.7

----------
Assay: Solubility of compound at pH 7.4
Assay type: physicochemical
Settings: buffer
metric: solubility

>>> df
                           smiles_structure     result
0  Cc1cnc(NC(=O)C2CC2)nc1-c1c[nH]c2c(NC(=O)C(C)(C)N3CCN(C)CC3)cccc12  > 1000 µM
1  Cc1cnc(NC(=O)C2CC2)nc1-c1c[nH]c2c(NC(=O)[C@@H](C)N3CCN(C)CC3)cccc12   > 930 µM
2  Cc1cnc(NC(=O)C2CC2)nc1-c1c[nH]c2c(NC(=O)[C@H](C)N3CCN(C)CC3)cccc12  > 1000 µM
